These entries and their values trace back to the supplement of paper PMC11061612.

Test system: SK-N-DZ (Neuroblastoma)
Assay: Bliss excess, mean over the matrix (fraction); higher = more synergy;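 further: after 72 h of two-drug dosing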
# Lookup of reported Bliss excess keyed by entry

| Compound | Bliss excess |
| --- | --- |
| CN(CCO)CC[C@H](CSc1ccccc1)Nc1ccc(S(=O)(=O)NC(=O)c2ccc(N3CCC([C@@H](O)c4ccccc4-c4ccc(Cl)cc4)CC3)cc2)cc1S(=O)(=O)C(F)(F)F [AZD4320] + CCN(CCO)CCCOc1ccc2c(Nc3cc(CC(=O)Nc4cccc(F)c4)[nH]n3)ncnc2c1 [AZD2811] (first compound max 1 µM, 7x7, partner max 1 µM) | 0.0087 |
| CC1(C)CCC(CN2CCN(c3ccc(C(=O)NS(=O)(=O)c4ccc(NCC5CCOCC5)c([N+](=O)[O-])c4)c(Oc4cnc5[nH]ccc5c4)c3)CC2)=C(c2ccc(Cl)cc2)C1 [Venetoclax] + C=CCn1c(=O)c2cnc(Nc3ccc(N4CCN(C)CC4)cc3)nc2n1-c1cccc(C(C)(C)O)n1 [AZD1775] (first compound max 1 µM, partner max 1 µM) | 0.0353 |
| COc1cccc2c1C(=O)c1c(O)c3c(c(O)c1C2=O)C[C@@](O)(C(=O)CO)C[C@@H]3O[C@H]1C[C@H](N)[C@H](O)[C@H](C)O1 [Doxorubicin] + Cc1cc2ncnn2cc1Nc1ncc2c(n1)n(C1CCOCC1)c(=O)n2C [AZD7648] (first compound max 1 µM, 7x7, partner max 10 µM) | 0.112 |

---

Test system: HT-3 (Cervical Carcinoma)
Test: Bliss excess, mean over the matrix (fraction); higher = more synergy
Reported values of Bliss excess for individual entries

| Molecule | Bliss excess |
| --- | --- |
| COc1cc2ncnc(Nc3ccc(F)c(Cl)c3)c2cc1OCCCN1CCOCC1 [Gefitinib] + CC(C)n1c(=O)n(C)c2cnc3cc(F)c(-c4ccc(OCCCN5CCCCC5)nc4)cc3c21 [AZD1390] (first compound max 10 µM, 7x7, partner max 0.3 µM) | -0.0456 |
| Cc1cc2ncnn2cc1Nc1ncc2c(n1)n(C1CCOCC1)c(=O)n2C [AZD7648] + O=C(c1cc(Cc2n[nH]c(=O)c3ccccc23)ccc1F)N1CCN(C(=O)C2CC2)CC1 [Olaparib] (first compound max 10 µM, 7x7, partner max 10 µM) | -0.0518 |
| COc1cccc(OCCCN)c1-c1cc(Nc2cnc(C#N)cn2)n[nH]1 [Prexasertib] + O=C(c1cc(Cc2n[nH]c(=O)c3ccccc23)ccc1F)N1CCN(C(=O)C2CC2)CC1 [Olaparib] (first compound max 1 µM, 7x7, partner max 10 µM) | 0.0276 |
| Cc1c2c(nn1C)CSCc1cc(n(C)n1)CSc1cc(c3ccccc3c1)OCCCc1c(C(=O)O)n(C)c3c-2c(Cl)ccc13 [AZD5991] + Cc1cc2ncnn2cc1Nc1ncc2c(n1)n(C1CCOCC1)c(=O)n2C [AZD7648] (first compound max 1 µM, 7x7, partner max 10 µM) | -0.0173 |
| Cc1c2c(nn1C)CSCc1cc(n(C)n1)CSc1cc(c3ccccc3c1)OCCCc1c(C(=O)O)n(C)c3c-2c(Cl)ccc13 [AZD5991] + C[C@@H](Nc1cc(F)cc(F)c1)c1cc(C(=O)N(C)C)cc2c(=O)cc(N3CCOCC3)oc12 [AZD8186] (first compound max 1 µM, 7x7, partner max 3 µM) | 0.0217 |
| Cn1cnc2c(F)c(Nc3ccc(Br)cc3Cl)c(C(=O)NOCCO)cc21 [Selumetinib] + C=CCn1c(=O)c2cnc(Nc3ccc(N4CCN(C)CC4)cc3)nc2n1-c1cccc(C(C)(C)O)n1 [AZD1775] (first compound max 10 µM, partner max 1 µM) | -0.0009 |
| NC1(C(=O)N[C@@H](CCO)c2ccc(Cl)cc2)CCN(c2ncnc3[nH]ccc23)CC1 [Capivasertib] + CCN(CCO)CCCOc1ccc2c(Nc3cc(CC(=O)Nc4cccc(F)c4)[nH]n3)ncnc2c1 [AZD2811] (first compound max 10 µM, 7x7, partner max 1 µM) | -0.0327 |
